# System: VERPE
# protocolSummary: Pre-emergence herbicidal action against VERPE
# Assay type: in vivo, Veronica persica
# reportedConditions: 320 g/ha
measurementLabel: Pre-emergence action against VERPE in % (%)

>>> quantitativereadout("CC#Cc1cc(C)c(C2=C(OC(=O)C(C)C)C3(CCC(COC)C3)NC2=O)c(Br)c1 (stereo not drawn) [Example P-32]")
90
>>> quantitativereadout("CC#Cc1cc(C)c(C2=C(OC(=O)OCC)C3(CCC(COCCOC)C3)NC2=O)c(Cl)c1 (stereo not drawn) [Example P-75]")
90
>>> quantitativereadout("CC#Cc1cc(C)c(C2=C(OC(=O)OCC)C3(CCC(COCCOC)C3)NC2=O)c(OC)c1 (stereo not drawn) [Example P-79]")
90
>>> quantitativereadout("CC#Cc1cc(C)c(C2=C(OC(=O)OCC)C3(CCC(COCCC)C3)NC2=O)c(Cl)c1 (stereo not drawn) [Example P-87]")
80
>>> quantitativereadout("CC#Cc1cc(C)c(C2=C(OC(=O)OCC)C3(CCC(COCC)C3)NC2=O)c(F)c1 (stereo not drawn) [Example P-54]")
80
>>> quantitativereadout("CC#Cc1cc(F)c(C2=C(OC(=O)OCC)C3(CCC(COCC)C3)NC2=O)c(OC)c1 (stereo not drawn) [Example P-69]")
90

----------
# System: AMARE
# protocolSummary: Pre-emergence herbicidal action against AMARE
# Format: in vivo, Amaranthus retroflexus
# reportedConditions: 320 g/ha
This section presents molecules with their documented Pre-emergence action against AMARE in % values.
measurementLabel: Pre-emergence action against AMARE in % (%)

>>> quantitativereadout("CC#Cc1cc(C)c(C2=C(O)C3(CCC(COCCC)C3)NC2=O)c(OC)c1 (stereo not shown) [Example I-58]")
100
>>> quantitativereadout("CC#Cc1cc(Cl)c(C2=C(OC(=O)OCC)C3(CCC(COC)C3)NC2=O)c(OC)c1 (stereo not shown) [Example P-97]")
100
>>> quantitativereadout("C#CCOCC1CCC2(C1)NC(=O)C(c1c(F)cc(C#CC)cc1OC)=C2OC(=O)OCC (stereo not shown) [Example P-104]")
100
>>> quantitativereadout("CC#Cc1cc(C)c(C2=C(OC(=O)OCC)C3(CCC(COCC)C3)NC2=O)c(Cl)c1 (stereo not shown) [Example P-28]")
100
>>> quantitativereadout("CC#Cc1cc(C)c(C2=C(OC(=O)OCC)C3(CCC(COC)C3)NC2=O)c(F)c1 (stereo not shown) [Example P-51]")
90
>>> quantitativereadout("CC#Cc1cc(Br)c(C2=C(OC(=O)OCC)[C@]3(CC[C@H](COCC)C3)NC2=O)c(OC)c1 (stereo in doubt) [Example P-13]")
90
>>> quantitativereadout("CC#Cc1cc(C)c(C2=C(OC(=O)C(C)C)C3(CCC(COCC)C3)NC2=O)c(F)c1 (stereo not shown) [Example P-56]")
80
>>> quantitativereadout("CC#Cc1cc(C)c(C2=C(O)C3(CCC(COCC)C3)NC2=O)c(OC)c1 (stereo not shown) [Example I-30]")
100
>>> quantitativereadout("CC#Cc1cc(C)c(C2=C(OC(=O)OCC)C3(CCC(COCCC)C3)NC2=O)c(OC)c1 (stereo not shown) [Example P-81]")
100
>>> quantitativereadout("CC#Cc1cc(C)c(C2=C(OC(=O)OCC)C3(CCC(COCCC)C3)NC2=O)c(Cl)c1 (stereo not shown) [Example P-86]")
100
>>> quantitativereadout("CC#Cc1cc(C)c(C2=C(OC(=O)OCC)C3(CCC(COC)C3)NC2=O)c(Br)c1 (stereo not shown) [Example P-30]")
100
>>> quantitativereadout("CC#Cc1cc(Br)c(C2=C(OC(=O)OCC)C3(CCC(COCC)C3)NC2=O)c(OC)c1 (stereo not shown) [Example P-05]")
100
>>> quantitativereadout("C#CCOCC1CCC2(C1)NC(=O)C(c1c(C)cc(C#CC)cc1OC)=C2O (stereo not shown) [Example I-77]")
100
>>> quantitativereadout("CC#Cc1cc(Br)c(C2=C(OC(=O)C(C)C)C3(CCC(COCC)C3)NC2=O)c(OC)c1 (stereo not shown) [Example P-23]")
90
>>> quantitativereadout("CC#Cc1cc(C)c(C2=C(O)C3(CCC(COCCOC)C3)NC2=O)c(Cl)c1 (stereo not shown) [Example I-51]")
100
>>> quantitativereadout("CC#Cc1cc(C)c(C2=C(OC(=O)OCC)C3(CCC(COC)C3)NC2=O)c(F)c1 (stereo not shown) [Example P-52]")
80
